Reported values: EC50 for Metabotropic glutamate receptor 8 (Rattus norvegicus), one per item.
readout_type: EC50

molecule=N[C@@H](CCS(=O)(=O)O)C(=O)O target="Metabotropic glutamate receptor 8 (Rattus norvegicus)" result="> 10 µM"
molecule=N[C@@H](CCP(=O)(O)O)C(=O)O target="Metabotropic glutamate receptor 8 (Rattus norvegicus)" result="1.26 µM"
molecule=N[C@H](CS(=O)(=O)O)C(=O)O target="Metabotropic glutamate receptor 8 (Rattus norvegicus)" result="> 10 µM"
molecule="NC(CS(=O)O)C(=O)O (stereo not given)" target="Metabotropic glutamate receptor 8 (Rattus norvegicus)" result="> 10 µM"
molecule=N[C@@H](CCS(=O)O)C(=O)O target="Metabotropic glutamate receptor 8 (Rattus norvegicus)" result="> 10 µM"

----------
Reported values: Ki for Beta-2 adrenergic receptor (Rattus norvegicus), one per item.
readout_type: Ki

compound="N[C@H]1CCSC1=O [NSC_134505]" result="> 10 µM"
compound="N[C@@H](CCS(=O)O)C(=O)O [L-homocysteine sulfinic acid]" result="> 10 µM"
compound="N[C@H](CS(=O)(=O)O)C(=O)O [L-cysteic acid]" result="> 10 µM"

----------
# Ki per entry for Neuronal acetylcholine receptor subunit alpha-4 (Homo sapiens)
readout_type: Ki

molecule="NC(CSSCC(N)C(=O)O)C(=O)O (configuration not stated)" readout_type=Ki result="> 10 µM"
molecule=CSCC[C@@H](N)C(=O)O readout_type=Ki result="> 10 µM"
molecule="NC(CS(=O)O)C(=O)O (configuration not stated)" readout_type=Ki result="> 10 µM"
molecule=N[C@@H](CCS(=O)(=O)O)C(=O)O readout_type=Ki result="> 10 µM"
molecule=N[C@H](CCS(=O)O)C(=O)O readout_type=Ki result="> 10 µM"
molecule=N[C@H](CS(=O)(=O)O)C(=O)O readout_type=Ki result="> 10 µM"
molecule=N[C@H](CCS(=O)(=O)O)C(=O)O readout_type=Ki result="> 10 µM"
molecule=N[C@H]1CCSC1=O readout_type=Ki result="> 10 µM"
molecule=N[C@@H](CS)C(=O)O readout_type=Ki result="> 10 µM"
molecule="N[C@@H](CCS)C(=O)O (racemic)" readout_type=Ki result="> 10 µM"
molecule=N[C@@H]1CCSC1=O readout_type=Ki result="> 10 µM"
molecule=N[C@@H](CCS(=O)O)C(=O)O readout_type=Ki result="> 10 µM"

----------
target: Neuronal acetylcholine receptor subunit alpha-2 (Homo sapiens)
Sequence (Q15822 whole entry): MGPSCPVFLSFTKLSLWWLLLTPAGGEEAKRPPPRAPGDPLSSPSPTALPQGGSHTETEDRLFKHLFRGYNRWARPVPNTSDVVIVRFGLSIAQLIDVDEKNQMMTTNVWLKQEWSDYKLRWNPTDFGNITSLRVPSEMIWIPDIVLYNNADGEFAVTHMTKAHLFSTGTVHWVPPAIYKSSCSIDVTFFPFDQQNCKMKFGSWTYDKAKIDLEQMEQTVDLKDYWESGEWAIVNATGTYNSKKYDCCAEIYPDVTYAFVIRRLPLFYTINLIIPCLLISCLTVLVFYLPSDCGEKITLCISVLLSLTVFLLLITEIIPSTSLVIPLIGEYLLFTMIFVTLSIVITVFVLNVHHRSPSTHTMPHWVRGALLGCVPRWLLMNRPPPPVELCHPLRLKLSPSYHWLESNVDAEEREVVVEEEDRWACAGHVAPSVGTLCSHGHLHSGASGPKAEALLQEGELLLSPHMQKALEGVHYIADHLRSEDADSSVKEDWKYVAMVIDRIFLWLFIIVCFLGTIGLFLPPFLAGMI
readout_type: Ki

molecule="N[C@H](CCS(=O)O)C(=O)O [D-homocysteine sulfinic acid]" readout_type=Ki result="> 10 µM"
molecule="N[C@@H](CCS(=O)O)C(=O)O [L-homocysteine sulfinic acid]" readout_type=Ki result="> 10 µM"
molecule="N[C@@H](CS)C(=O)O [CAS_5862]" readout_type=Ki result="> 10 µM"
molecule="NC(CS(=O)O)C(=O)O (configuration not stated) [CAS_109]" readout_type=Ki result="> 10 µM"
molecule="NC(CSSCC(N)C(=O)O)C(=O)O (configuration not stated) [CAS_595]" readout_type=Ki result="> 10 µM"
molecule="CSCC[C@@H](N)C(=O)O [CAS_6137]" readout_type=Ki result="> 10 µM"
molecule="N[C@@H](CCS(=O)(=O)O)C(=O)O [L-homocysteic acid]" readout_type=Ki result="> 10 µM"
molecule="N[C@@H]1CCSC1=O [D-homocysteine thiolactone]" readout_type=Ki result="> 10 µM"
molecule="N[C@H](CS(=O)(=O)O)C(=O)O [L-cysteic acid]" readout_type=Ki result="> 10 µM"
molecule="N[C@@H](CCS)C(=O)O (racemic) [CAS_778]" readout_type=Ki result="> 10 µM"
molecule="N[C@H]1CCSC1=O [NSC_134505]" readout_type=Ki result="> 10 µM"
molecule="N[C@H](CCS(=O)(=O)O)C(=O)O [D-homocysteic acid]" readout_type=Ki result="> 10 µM"

----------
target: 5-hydroxytryptamine receptor 1D (Homo sapiens, UniProt P28221)
Sequence (P28221 whole entry): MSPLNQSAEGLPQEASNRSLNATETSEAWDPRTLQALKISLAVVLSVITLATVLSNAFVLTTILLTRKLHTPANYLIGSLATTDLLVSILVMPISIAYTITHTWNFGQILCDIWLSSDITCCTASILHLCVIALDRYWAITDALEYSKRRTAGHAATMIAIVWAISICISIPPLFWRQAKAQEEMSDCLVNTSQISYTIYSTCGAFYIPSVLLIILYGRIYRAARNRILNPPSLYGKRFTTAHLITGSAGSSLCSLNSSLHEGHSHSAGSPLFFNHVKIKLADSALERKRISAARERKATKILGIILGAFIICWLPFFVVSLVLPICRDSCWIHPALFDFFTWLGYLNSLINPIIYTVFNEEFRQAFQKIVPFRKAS
pKi: −log10 of the molar value.
# key: entry, value: pKi
readout_type: pKi

molecule="NC(CS(=O)O)C(=O)O (configuration not stated)" result="< 5.00"
molecule=N[C@@H](CCS(=O)O)C(=O)O result="< 5.00"
molecule=N[C@H](CS(=O)(=O)O)C(=O)O result="< 5.00"
molecule=N[C@H](CCS(=O)O)C(=O)O result="< 5.00"
molecule=N[C@H](CCS(=O)(=O)O)C(=O)O result="< 5.00"
molecule="N[C@@H](CCS(=O)(=O)O)C(=O)O (racemic)" result="< 5.00"
molecule=N[C@@H](CS)C(=O)O result="< 5.00"

----------
biological target: Histamine H1 receptor (Rattus norvegicus, UniProt P31390)
Sequence (P31390 whole entry): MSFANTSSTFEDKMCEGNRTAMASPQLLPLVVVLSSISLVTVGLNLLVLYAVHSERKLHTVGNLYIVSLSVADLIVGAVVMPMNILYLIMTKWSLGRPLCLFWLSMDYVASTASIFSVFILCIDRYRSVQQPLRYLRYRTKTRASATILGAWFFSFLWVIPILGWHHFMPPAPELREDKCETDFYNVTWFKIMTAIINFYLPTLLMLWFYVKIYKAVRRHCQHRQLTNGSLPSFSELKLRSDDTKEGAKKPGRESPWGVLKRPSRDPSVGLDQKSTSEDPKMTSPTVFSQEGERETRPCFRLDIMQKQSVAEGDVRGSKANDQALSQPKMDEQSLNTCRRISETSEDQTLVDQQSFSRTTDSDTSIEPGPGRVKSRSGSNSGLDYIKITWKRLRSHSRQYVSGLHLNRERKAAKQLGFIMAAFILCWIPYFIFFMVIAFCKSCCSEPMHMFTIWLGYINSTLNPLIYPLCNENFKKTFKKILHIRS
pKi: −log10 of the molar value.
readout_type: pKi

compound="N[C@@H](CCS(=O)(=O)O)C(=O)O (racemic)" result="< 5.00"
compound="NC(CS(=O)O)C(=O)O (stereo not drawn)" result="< 5.00"
compound=N[C@@H](CCS(=O)O)C(=O)O result="< 5.00"

----------
This section lists Ki readings for D(3) dopamine receptor (Homo sapiens, UniProt P35462).
readout_type: Ki

molecule="N[C@@H](CCS(=O)(=O)O)C(=O)O (racemic)" readout_type=Ki result="> 10 µM"
molecule="N[C@@H](CCS)C(=O)O (racemic)" readout_type=Ki result="> 10 µM"
molecule=CSCC[C@@H](N)C(=O)O readout_type=Ki result="> 10 µM"
molecule="NC(CSSCC(N)C(=O)O)C(=O)O (configuration not stated)" readout_type=Ki result="> 10 µM"
molecule=N[C@H](CS(=O)(=O)O)C(=O)O readout_type=Ki result="> 10 µM"
molecule=N[C@@H](CCS(=O)O)C(=O)O readout_type=Ki result="> 10 µM"
molecule="NC(CS(=O)O)C(=O)O (configuration not stated)" readout_type=Ki result="> 10 µM"

----------
biological target: Metabotropic glutamate receptor 6 (Rattus norvegicus, UniProt P35349)
Sequence (P35349 whole entry): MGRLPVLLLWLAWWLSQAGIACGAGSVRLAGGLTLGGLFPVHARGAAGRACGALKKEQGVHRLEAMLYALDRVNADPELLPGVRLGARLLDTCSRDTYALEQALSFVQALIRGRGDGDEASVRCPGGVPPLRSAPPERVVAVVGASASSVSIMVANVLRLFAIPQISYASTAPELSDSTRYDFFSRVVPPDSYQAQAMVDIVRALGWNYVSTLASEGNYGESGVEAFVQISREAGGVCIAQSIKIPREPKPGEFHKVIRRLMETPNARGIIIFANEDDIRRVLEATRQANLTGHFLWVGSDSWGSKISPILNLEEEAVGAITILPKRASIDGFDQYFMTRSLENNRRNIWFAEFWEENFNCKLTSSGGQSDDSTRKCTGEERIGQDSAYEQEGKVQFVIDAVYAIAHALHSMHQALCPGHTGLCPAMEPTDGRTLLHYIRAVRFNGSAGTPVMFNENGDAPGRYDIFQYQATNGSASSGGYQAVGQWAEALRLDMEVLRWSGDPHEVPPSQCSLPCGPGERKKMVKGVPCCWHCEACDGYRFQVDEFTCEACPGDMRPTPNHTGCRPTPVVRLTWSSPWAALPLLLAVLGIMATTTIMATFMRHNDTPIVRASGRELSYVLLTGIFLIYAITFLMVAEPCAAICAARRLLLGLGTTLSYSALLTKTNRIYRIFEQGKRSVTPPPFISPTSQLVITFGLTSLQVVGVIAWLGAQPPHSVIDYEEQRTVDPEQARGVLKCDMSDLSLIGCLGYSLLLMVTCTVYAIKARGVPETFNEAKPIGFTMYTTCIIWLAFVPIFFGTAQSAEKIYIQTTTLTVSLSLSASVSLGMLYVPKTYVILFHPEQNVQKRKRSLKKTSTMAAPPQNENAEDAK
pEC50: −log10 of the molar value.
Entries and their measured pEC50 follow.
readout_type: pEC50

molecule=N[C@@H](CCS(=O)(=O)O)C(=O)O target="Metabotropic glutamate receptor 6 (Rattus norvegicus, UniProt P35349)" readout_type=pEC50 bound_sign== quantitative_result=5.10
molecule=N[C@H](CS(=O)(=O)O)C(=O)O target="Metabotropic glutamate receptor 6 (Rattus norvegicus, UniProt P35349)" readout_type=pEC50 bound_sign=< quantitative_result=5.00
molecule=N[C@@H](CCP(=O)(O)O)C(=O)O target="Metabotropic glutamate receptor 6 (Rattus norvegicus, UniProt P35349)" readout_type=pEC50 bound_sign== quantitative_result=6.40
molecule="NC(CS(=O)O)C(=O)O (stereo not given)" target="Metabotropic glutamate receptor 6 (Rattus norvegicus, UniProt P35349)" readout_type=pEC50 bound_sign=< quantitative_result=5.00
molecule=N[C@@H](CCS(=O)O)C(=O)O target="Metabotropic glutamate receptor 6 (Rattus norvegicus, UniProt P35349)" readout_type=pEC50 bound_sign== quantitative_result=5.21

----------
Beta-1 adrenergic receptor (Rattus norvegicus, UniProt P18090) measurements of Ki, listed per entry.
Sequence (P18090 whole entry): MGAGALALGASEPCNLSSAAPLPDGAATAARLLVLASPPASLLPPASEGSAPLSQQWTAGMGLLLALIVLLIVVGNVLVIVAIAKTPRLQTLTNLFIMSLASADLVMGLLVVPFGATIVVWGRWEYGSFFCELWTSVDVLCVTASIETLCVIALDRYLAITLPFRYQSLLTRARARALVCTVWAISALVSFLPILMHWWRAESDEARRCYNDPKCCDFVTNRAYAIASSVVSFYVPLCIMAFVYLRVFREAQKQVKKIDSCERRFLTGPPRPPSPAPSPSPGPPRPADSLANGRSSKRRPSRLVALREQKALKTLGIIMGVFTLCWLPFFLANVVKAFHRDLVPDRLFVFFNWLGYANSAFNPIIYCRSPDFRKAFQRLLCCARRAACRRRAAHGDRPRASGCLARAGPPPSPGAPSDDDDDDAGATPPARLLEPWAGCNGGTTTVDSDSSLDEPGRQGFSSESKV
readout_type: Ki

compound="N[C@@H](CCS)C(=O)O (racemic)" target="Beta-1 adrenergic receptor (Rattus norvegicus, UniProt P18090)" result="> 10 µM"
compound=N[C@@H](CCS(=O)O)C(=O)O target="Beta-1 adrenergic receptor (Rattus norvegicus, UniProt P18090)" result="> 10 µM"
compound=N[C@@H]1CCSC1=O target="Beta-1 adrenergic receptor (Rattus norvegicus, UniProt P18090)" result="> 10 µM"
compound=N[C@H]1CCSC1=O target="Beta-1 adrenergic receptor (Rattus norvegicus, UniProt P18090)" result="> 10 µM"
compound=CSCC[C@@H](N)C(=O)O target="Beta-1 adrenergic receptor (Rattus norvegicus, UniProt P18090)" result="> 10 µM"
compound=N[C@@H](CCS(=O)(=O)O)C(=O)O target="Beta-1 adrenergic receptor (Rattus norvegicus, UniProt P18090)" result="> 10 µM"
compound=N[C@H](CS(=O)(=O)O)C(=O)O target="Beta-1 adrenergic receptor (Rattus norvegicus, UniProt P18090)" result="> 10 µM"

----------
Measured Ki (5-hydroxytryptamine receptor 5A (Homo sapiens, UniProt P47898))
readout_type: Ki

molecule="NC(CS(=O)O)C(=O)O (configuration not stated)" result="> 10 µM"
molecule=N[C@H]1CCSC1=O result="> 10 µM"
molecule="NC(CSSCC(N)C(=O)O)C(=O)O (configuration not stated)" result="> 10 µM"
molecule="N[C@@H](CCS(=O)(=O)O)C(=O)O (racemic)" result="> 10 µM"
molecule=N[C@@H](CCS(=O)O)C(=O)O result="> 10 µM"
molecule=N[C@@H]1CCSC1=O result="> 10 µM"
molecule=N[C@H](CCS(=O)(=O)O)C(=O)O result="> 10 µM"

Values were extracted from BindingDB's records for doi:10.1124/jpet.102.047092.
